# Tm per entry
Molecular target: Athe_2310 (Anaerocellum bescii)
Sequence (A0ABY1S743 entry or part of it): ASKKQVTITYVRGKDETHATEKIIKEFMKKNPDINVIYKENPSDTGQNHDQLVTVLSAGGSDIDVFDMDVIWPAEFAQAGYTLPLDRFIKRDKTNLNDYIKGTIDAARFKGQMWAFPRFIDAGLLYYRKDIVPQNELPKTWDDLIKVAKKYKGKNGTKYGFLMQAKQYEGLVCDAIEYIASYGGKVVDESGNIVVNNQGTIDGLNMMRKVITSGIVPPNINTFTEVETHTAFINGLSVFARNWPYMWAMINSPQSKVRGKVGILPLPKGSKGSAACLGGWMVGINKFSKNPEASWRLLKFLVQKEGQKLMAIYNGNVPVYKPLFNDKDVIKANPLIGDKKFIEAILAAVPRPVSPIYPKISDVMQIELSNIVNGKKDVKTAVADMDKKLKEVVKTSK
Assay: DSC thermal shift of Athe_2310 with ɑ-glucan substrates
Assay type: binding
Settings: Athe_2310 + sugar; 2.5 mg/mL protein, 5 mM sugar; 50 mM HEPES, 300 mM NaCl pH 7.0
Give the number; °C is assumed, so skip it.

Consider the worked cases shown below.
| molecule | Tm [°C] |
| --- | --- |
| OC[C@H]1O[C@H](O[C@H]2[C@H](O)[C@@H](O)[C@@H](O[C@H]3[C@H](O)[C@@H](O)[C@@H](O[C@H]4[C@H](O)[C@@H](O)C(O)O[C@@H]4CO)O[C@@H]3CO)O[C@@H]2CO)[C@H](O)[C@@H](O)[C@@H]1O (stereo partly drawn) [MalG4, D-Maltotetraose] | 103.36 |
| OC[C@H]1O[C@H](O[C@H]2[C@H](O)[C@@H](O)[C@@H](O[C@H]3[C@H](O)[C@@H](O)C(O)O[C@@H]3CO)O[C@@H]2CO)[C@H](O)[C@@H](O)[C@@H]1O (stereo partly drawn) [MalG3, D-Maltotriose] | 108.42 |
| OC[C@H]1O[C@H](O[C@H]2[C@H](O)[C@@H](O)[C@@H](O[C@H]3[C@H](O)[C@@H](O)[C@@H](O[C@H]4[C@H](O)[C@@H](O)[C@@H](O[C@H]5[C@H](O)[C@@H](O)C(O)O[C@@H]5CO)O[C@@H]4CO)O[C@@H]3CO)O[C@@H]2CO)[C@H](O)[C@@H](O)[C@@H]1O (stereo partly drawn) [MalG5, D-Maltopentaose] | 102.73 |
| OC[C@H]1O[C@H](O[C@H]2O[C@H](CO)[C@@H](O)[C@H](O)[C@H]2O)[C@H](O)[C@@H](O)[C@@H]1O [Trehalose, D-Trehalose Dihydrate] | 109.02 |

Item under review: OC[C@H]1O[C@H](O[C@H]2[C@H](O)[C@@H](O)[C@@H](O[C@H]3[C@H](O)[C@@H](O)[C@@H](O[C@H]4[C@H](O)[C@@H](O)[C@@H](O[C@H]5[C@H](O)[C@@H](O)[C@@H](O[C@H]6[C@H](O)[C@@H](O)[C@@H](O[C@H]7[C@H](O)[C@@H](O)C(O)O[C@@H]7CO)O[C@@H]6CO)O[C@@H]5CO)O[C@@H]4CO)O[C@@H]3CO)O[C@@H]2CO)[C@H](O)[C@@H](O)[C@@H]1O (stereo partly drawn) [MalG7, D-Maltoheptaose] . Reported Tm?
102.06

* * *

# Tm per entry
Target: Athe_2574 (Anaerocellum bescii, UniProt A0ABY1S640)
Sequence (A0ABY1S640 entry or part of it): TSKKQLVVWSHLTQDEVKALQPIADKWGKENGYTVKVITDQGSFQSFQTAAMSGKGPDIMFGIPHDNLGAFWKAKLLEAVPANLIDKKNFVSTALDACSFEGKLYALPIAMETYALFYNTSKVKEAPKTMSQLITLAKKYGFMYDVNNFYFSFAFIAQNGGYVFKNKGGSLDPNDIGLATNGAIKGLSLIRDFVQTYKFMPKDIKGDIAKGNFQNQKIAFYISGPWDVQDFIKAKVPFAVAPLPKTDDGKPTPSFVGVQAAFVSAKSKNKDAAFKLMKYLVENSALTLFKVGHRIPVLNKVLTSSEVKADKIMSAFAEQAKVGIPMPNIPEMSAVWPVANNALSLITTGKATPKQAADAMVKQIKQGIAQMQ
Test: DSC thermal shift of Athe_2574 with ɑ-glucan substrates
Format: binding
Conditions: Athe_2574 + sugar; 2.5 mg/mL protein, 5 mM sugar; 50 mM HEPES, 300 mM NaCl pH 7.0
Give the number; °C is assumed, so skip it.

Consider the worked cases shown below.
| compound | system | Tm, °C |
| --- | --- | --- |
| OC[C@H]1O[C@H](O[C@H]2[C@H](O)[C@@H](O)[C@@H](O[C@H]3[C@H](O)[C@@H](O)C(O)O[C@@H]3CO)O[C@@H]2CO)[C@H](O)[C@@H](O)[C@@H]1O (stereo partly drawn) | Athe_2574 (Anaerocellum bescii, UniProt A0ABY1S640) | 101.47 |
| OC[C@H]1O[C@H](O[C@H]2[C@H](O)[C@@H](O)[C@@H](O[C@H]3[C@H](O)[C@@H](O)[C@@H](O[C@H]4[C@H](O)[C@@H](O)C(O)O[C@@H]4CO)O[C@@H]3CO)O[C@@H]2CO)[C@H](O)[C@@H](O)[C@@H]1O (stereo partly drawn) | Athe_2574 (Anaerocellum bescii, UniProt A0ABY1S640) | 104.26 |

Now for the compound whose Tm we want.
Item under review: OC[C@H]1O[C@H](O[C@H]2[C@H](O)[C@@H](O)[C@H](O)O[C@@H]2CO)[C@H](O)[C@@H](O)[C@@H]1O [Maltose, D-Maltose Monohydrate] . Reported Tm?
97.8
